Numbers sourced from patent US7803816B2.

Target: recombinant human MCHR1-receptors (Homo sapiens)
Construct: expressed in transfected cells
Experiment: MCHR filter binding assay (competition binding)
Conditions: membranes from CHO-K1 cells expressing human MCHR1; 0.2 nM [Phe13,[125I]Tyr19]-MCH; read-out: IC50 (nM), in vitro activity (binding assay)
Where a name gives a salt, the structure may show the parent alone.

- COMPOUND: "CCC(=O)Nc1ccc2c(c1)C[C@H](CN1CC[C@@H](n3c(C(C)C)nc4cc(C)ccc43)[C@H](OC)C1)C2"
  IC50: "20 to 200 nM"
- COMPOUND: "CO[C@@H]1CN(C[C@H]2Cc3ccc(NC(=O)C(C)C)cc3C2)CC[C@H]1n1c(C)nc2cc(C)ccc21 [Example 43]"
  IC50: "20 to 200 nM"
- COMPOUND: "CCC(C)C(=O)Nc1ccc2c(c1)CC(CN1CCC(n3c(C)nc4cc(C)ccc43)CC1)C2 (stereo not shown)"
  IC50: "20 to 200 nM"
- COMPOUND: "CO[C@@H]1CN(CC2Cc3ccc(F)cc3C2)CC[C@H]1n1c(C)nc2cc(C)ccc21 (stereo partly shown)"
  IC50: "20 to 200 nM"
- COMPOUND: "CSC1CN(C[C@@H]2Cc3ccc(NC(=O)C(C)C)cc3C2)CCC1n1c(C)nc2cc(C)ccc21 (stereo partly shown) [Example 22, dihydrochloride]"
  IC50: "20 to 200 nM"
- COMPOUND: "CO[C@@H]1CN(CC2Cc3ccc(Br)cc3C2)CC[C@H]1n1c(C(C)(C)O)nc2cc(C)ccc21 (stereo in doubt)"
  IC50: "< 20 nM"
- COMPOUND: "CO[C@@H]1CN(CC2Cc3ccccc3C2)CC[C@H]1n1c(C(C)(C)O)nc2cc(C)ccc21"
  IC50: "20 to 200 nM"
- COMPOUND: "CO[C@@H]1CN(C[C@H]2Cc3ccc(Br)cc3C2)CC[C@H]1n1c(C(C)(C)O)nc2cc(C)c(F)cc21"
  IC50: "< 20 nM"
- COMPOUND: "Cc1ccc2c(c1)nc(C(C)C)n2[C@@H]1CCN(CC2Cc3ccccc3C2)C[C@H]1O"
  IC50: "200 to 5000 nM"
- COMPOUND: "CO[C@@H]1CN(C[C@H]2Cc3ccc(C#N)cc3C2)CC[C@H]1n1c(C)nc2cc(C)ccc21"
  IC50: "< 20 nM"
- COMPOUND: "CO[C@H]1CN(CC2Cc3ccc(Cl)cc3C2)CC[C@@H]1n1c(C)nc2cc(C)ccc21 (stereo partly shown) [Example 19, dihydrochloride]"
  IC50: "20 to 200 nM"
- COMPOUND: "Cc1ccc2c(c1)nc(C(C)(C)C)n2C1CCN(C[C@@H]2Cc3ccc(NC(=O)C(C)C)cc3C2)CC1"
  IC50: "< 20 nM"
- COMPOUND: "CO[C@H]1CN(C[C@@H]2Cc3ccc(NC(=O)C(C)C)cc3C2)CC[C@@H]1n1c(C)nc2cc(C)ccc21"
  IC50: "< 20 nM"
- COMPOUND: "Cc1ccc2c(c1)nc(C)n2C1CCN(CC2Cc3ccc(NC(=O)C(C)C)cc3C2)CC1 (stereo not shown)"
  IC50: "20 to 200 nM"
- COMPOUND: "CO[C@@H]1CN(C[C@H]2Cc3ccc(Cl)cc3C2)CC[C@H]1n1c(C(C)(C)O)nc2cc(C)ccc21"
  IC50: "20 to 200 nM"
- COMPOUND: "COC(=O)Nc1ccc2c(c1)C[C@H](CN1CCC(n3c(-c4ccccc4)nc4cc(C)ccc43)CC1)C2"
  IC50: "< 20 nM"
- COMPOUND: "CO[C@H]1CN(CC2Cc3cc(F)c(F)cc3C2)CC[C@@H]1n1c(C)nc2cc(C)ccc21"
  IC50: "20 to 200 nM"
- COMPOUND: "CO[C@@H]1CN(C[C@@H]2Cc3ccc(F)cc3C2)CC[C@H]1n1c(C(C)(C)O)nc2cc(C)ccc21"
  IC50: "20 to 200 nM"
- COMPOUND: "Cc1ccc2c(c1)nc(C(C)(C)O)n2C1CCN(C[C@@H]2Cc3ccc(Br)cc3C2)CC1"
  IC50: "20 to 200 nM"
- COMPOUND: "CO[C@H]1CN(C[C@@H]2Cc3ccc(NC(=O)C(C)C)cc3C2)CC[C@@H]1n1c(C2CC2)nc2cc(C)ccc21"
  IC50: "< 20 nM"
- COMPOUND: "CO[C@@H]1CN(C[C@H]2Cc3ccc(NC(=O)C(C)C)cc3C2)CC[C@H]1n1c(C)nc2cc(C)ccc21 [Example 39, dihydrochloride]"
  IC50: "< 20 nM"
- COMPOUND: "CO[C@H]1CN(C[C@@H]2Cc3ccc(NC(=O)C4CC4)cc3C2)CCC1n1c(C2CC2)nc2cc(C)ccc21 (stereo in doubt)"
  IC50: "< 20 nM"
- COMPOUND: "CO[C@@H]1CN(C[C@@H]2Cc3ccc(Br)cc3C2)CC[C@H]1n1c(C)nc2cc(C)ccc21 [Example 87, dihydrochloride]"
  IC50: "20 to 200 nM"
- COMPOUND: "CCC(=O)Nc1ccc2c(c1)C[C@H](CN1CC[C@@H](n3c(C4CC4)nc4cc(C)ccc43)[C@H](OC)C1)C2"
  IC50: "20 to 200 nM"
- COMPOUND: "Cc1ccc2c(c1)nc(CC(C)(C)O)n2C1CCN(CC2Cc3ccc(F)cc3C2)CC1 (stereo not shown) [Example 23, dihydrochloride]"
  IC50: "20 to 200 nM"
- COMPOUND: "CO[C@H]1CN(C[C@@H]2Cc3ccc(Br)cc3C2)CC[C@@H]1n1c(C(C)C)nc2cc(C)ccc21"
  IC50: "200 to 5000 nM"
- COMPOUND: "Cc1ccc2c(c1)nc(C)n2C1CCN(C[C@H]2Cc3ccc(NC(=O)C(C)C)cc3C2)CC1"
  IC50: "20 to 200 nM"
- COMPOUND: "CO[C@@H]1CN(C[C@H]2Cc3ccc(Br)cc3C2)CC[C@H]1n1c(C(C)C)nc2cc(C)ccc21"
  IC50: "20 to 200 nM"

* * *

Biological target: recombinant human MCHR1-receptors (Homo sapiens)
Construct: expressed in transfected cells
Assay: MCHR filter binding assay (competition binding)
Settings: membranes from CHO-K1 cells expressing human MCHR1; 0.2 nM [Phe13,[125I]Tyr19]-MCH; read-out: IC50 (nM), in vitro activity (binding assay)

- COMPOUND: "Cc1ccc2c(c1)nc(C)n2[C@@H]1CCN(C[C@@H]2Cc3ccc(NC(=O)C(C)C)cc3C2)C[C@H]1CO (racemic) [Example 3]"
  IC50: "< 20 nM"
- COMPOUND: "CCC(=O)Nc1ccc2c(c1)C[C@H](CN1CCC(n3c(C(C)C)nc4cc(C)ccc43)[C@@H](OC)C1)C2 (stereo in doubt)"
  IC50: "< 20 nM"
- COMPOUND: "COC(=O)Nc1ccc2c(c1)C[C@H](CN1CC[C@H](n3c(C4CC4)nc4cc(C)ccc43)[C@@H](OC)C1)C2"
  IC50: "< 20 nM"
- COMPOUND: "CCCC(=O)Nc1ccc2c(c1)C[C@@H](CN1CCC(n3c(C)nc4cc(C)ccc43)CC1)C2"
  IC50: "20 to 200 nM"

* * *

Measured IC50, listed per entry for reference.
Molecular target: recombinant human MCHR1-receptors (Homo sapiens, UniProt Q99705)
Construct: expressed in transfected cells
Sequence (Q99705 whole entry): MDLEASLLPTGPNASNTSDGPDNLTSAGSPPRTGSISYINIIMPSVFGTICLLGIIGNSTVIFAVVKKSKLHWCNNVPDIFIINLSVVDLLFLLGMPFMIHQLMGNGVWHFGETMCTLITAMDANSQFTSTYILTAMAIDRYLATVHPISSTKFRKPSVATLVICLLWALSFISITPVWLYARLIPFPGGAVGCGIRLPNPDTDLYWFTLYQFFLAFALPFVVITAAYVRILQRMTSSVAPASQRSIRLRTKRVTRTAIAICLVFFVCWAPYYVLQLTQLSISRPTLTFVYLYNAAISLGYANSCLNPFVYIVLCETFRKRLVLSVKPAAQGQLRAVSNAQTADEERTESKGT
Assay: MCHR filter binding assay (competition binding)
Settings: membranes from CHO-K1 cells expressing human MCHR1; 0.2 nM [Phe13,[125I]Tyr19]-MCH; read-out: IC50 (nM), in vitro activity (binding assay)
Counter-ions that a name gives are not always drawn.

- COMPOUND: "CCC(=O)Nc1ccc2c(c1)CC(CN1CC[C@@H](n3c(C)nc4cc(C)ccc43)[C@H](O)C1)C2 (stereo in doubt) [Example 5]"
  IC50: "20 to 200 nM"
- COMPOUND: "CO[C@@H]1CN(C[C@H]2Cc3ccc(Br)cc3C2)CC[C@H]1n1c(C(C)(C)O)nc2cc(F)ccc21 [Example 111]"
  IC50: "20 to 200 nM"
- COMPOUND: "CO[C@@H]1CN(C[C@@H]2Cc3ccc(NC(=O)C(C)C)cc3C2)CC[C@H]1n1c(C)nc2cc(C)ccc21 [Example 16, dihydrochloride]"
  IC50: "20 to 200 nM"
- COMPOUND: "Cc1ccc2c(c1)nc(C)n2[C@@H]1CCN(C[C@H]2Cc3ccc(NC(=O)C4CC4)cc3C2)C[C@H]1O [Example 88]"
  IC50: "20 to 200 nM"
- COMPOUND: "Cc1cc2nc(C(C)(C)O)n(C3CCN(C[C@H]4Cc5ccc(Br)cc5C4)CC3)c2cc1F [Example 124]"
  IC50: "< 20 nM"
- COMPOUND: "Cc1ccc2c(c1)nc(C)n2C1CCN(CC2=Cc3ccc(NC(=O)C(C)C)cc3C2)CC1 [Example 53]"
  IC50: "20 to 200 nM"
- COMPOUND: "CO[C@H]1CN(C[C@@H]2Cc3ccc(NC(=O)C(F)F)cc3C2)CC[C@@H]1n1c(C(C)C)nc2cc(C)ccc21 [Example 67]"
  IC50: "< 20 nM"
- COMPOUND: "CO[C@H]1CN(CC2Cc3cc(Cl)c(Cl)cc3C2)CC[C@@H]1n1c(C(C)C)nc2cc(C)ccc21 [Example 95, dihydrochloride]"
  IC50: "200 to 5000 nM"
- COMPOUND: "CCCC(=O)Nc1ccc2c(c1)C[C@H](CN1CC[C@@H](n3c(C4CC4)nc4cc(C)ccc43)[C@H](OC)C1)C2 [Example 79]"
  IC50: "20 to 200 nM"
- COMPOUND: "Cc1ccc2c(c1)nc(C(C)(C)O)n2C1CCN(CC2Cc3ccc(Cl)cc3C2)CC1 (centres unmarked) [Example 14]"
  IC50: "< 20 nM"
- COMPOUND: "CO[C@@H]1CN(CC2Cc3ccccc3C2)CC[C@H]1n1c(C)nc2cc(C)ccc21 [Example 50]"
  IC50: "20 to 200 nM"
- COMPOUND: "Cc1ccc2c(c1)nc(C)n2[C@H]1CCN(C[C@@H]2Cc3ccc(NC(=O)C(C)C)cc3C2)C[C@@H]1OCC(C)(C)O [Example 15, dihydrochloride]"
  IC50: "< 20 nM"
- COMPOUND: "CCC(=O)Nc1ccc2c(c1)C[C@H](CN1CCC(n3c(C(C)(C)O)nc4cc(C)ccc43)CC1)C2 [Example 8]"
  IC50: "20 to 200 nM"
- COMPOUND: "CO[C@H]1CN(CC2Cc3cc(Cl)c(Cl)cc3C2)CC[C@@H]1n1c(C)nc2cc(C)ccc21 [Example 94, dihydrochloride]"
  IC50: "200 to 5000 nM"
- COMPOUND: "Cc1cc2nc(C(C)(C)O)n(C3CCN(CC4Cc5ccc(F)cc5C4)CC3)c2cc1F (centres unmarked) [Example 13]"
  IC50: "< 20 nM"
- COMPOUND: "COc1ccc2c(c1)CC(CN1CC[C@H](n3c(C)nc4cc(C)ccc43)[C@@H](OC)C1)C2 (some centres unmarked) [Example 92, dihydrochloride]"
  IC50: "20 to 200 nM"
- COMPOUND: "Cc1ccc2c(c1)nc(C(C)C)n2[C@@H]1CCN(CC2Cc3ccc(NC(=O)C4CC4)cc3C2)C[C@H]1O (stereo in doubt) [Example 2]"
  IC50: "20 to 200 nM"
